Molecular target: UniProt Q05030
Sequence (Q05030 32-1097): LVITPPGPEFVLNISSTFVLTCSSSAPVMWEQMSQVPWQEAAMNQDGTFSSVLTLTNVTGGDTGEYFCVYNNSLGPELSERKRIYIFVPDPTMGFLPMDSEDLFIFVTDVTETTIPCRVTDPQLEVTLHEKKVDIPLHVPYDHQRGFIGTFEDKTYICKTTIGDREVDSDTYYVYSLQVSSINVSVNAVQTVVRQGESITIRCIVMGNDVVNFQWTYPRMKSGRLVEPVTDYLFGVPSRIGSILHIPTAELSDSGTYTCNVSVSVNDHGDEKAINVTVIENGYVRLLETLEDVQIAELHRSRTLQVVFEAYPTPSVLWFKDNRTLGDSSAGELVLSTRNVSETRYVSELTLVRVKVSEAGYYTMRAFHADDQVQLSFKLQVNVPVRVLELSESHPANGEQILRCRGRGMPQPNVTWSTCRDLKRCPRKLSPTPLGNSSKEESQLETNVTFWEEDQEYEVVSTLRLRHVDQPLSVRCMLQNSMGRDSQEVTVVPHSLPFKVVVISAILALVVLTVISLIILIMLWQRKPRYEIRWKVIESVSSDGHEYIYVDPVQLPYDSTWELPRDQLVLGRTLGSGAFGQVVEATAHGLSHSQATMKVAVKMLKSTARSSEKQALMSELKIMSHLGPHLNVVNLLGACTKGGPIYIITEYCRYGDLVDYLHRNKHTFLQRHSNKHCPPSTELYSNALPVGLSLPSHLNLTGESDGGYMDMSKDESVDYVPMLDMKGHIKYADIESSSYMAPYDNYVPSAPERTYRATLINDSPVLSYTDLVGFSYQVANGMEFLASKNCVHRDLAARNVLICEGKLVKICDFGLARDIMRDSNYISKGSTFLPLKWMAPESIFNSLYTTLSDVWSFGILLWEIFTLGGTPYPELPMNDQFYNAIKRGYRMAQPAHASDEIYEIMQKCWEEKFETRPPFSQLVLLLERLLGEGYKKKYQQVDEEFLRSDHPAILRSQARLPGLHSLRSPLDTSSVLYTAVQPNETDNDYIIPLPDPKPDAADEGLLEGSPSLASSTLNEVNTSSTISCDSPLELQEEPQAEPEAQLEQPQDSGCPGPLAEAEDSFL
Assay: PDGFRβ Cellular Assay (PDGFRb P-Y751 HTRF in A10 cells stimulated with PDGF-BB)
Assay type: cell-based
Conditions: read-out: PDGFR Cellular IC50
pIC50: −log10 of the molar value.
Consider the following molecules and their measured pIC50 readings.
QUANTITY MEASURED: pIC50

{"MOLECULE": "COc1ncccc1-c1cn2ncc(C(=O)Nc3cc(NC(=O)CN4C[C@H](C)O[C@@H](C)C4)cnc3C)c2s1 (relative stereo) [Example 384]", "COMPARISON SIGN": "=", "REPORTED RESULT": 8.37}
{"MOLECULE": "Cc1cc(C(=O)NCCN2CCC(O)CC2)sc1NC(=O)c1cnn2cc(-c3cnn(C)c3)sc12", "COMPARISON SIGN": "<", "REPORTED RESULT": 5.52}
{"MOLECULE": "CC(=O)Nc1cncc(-c2cn3ncc(C(=O)Nc4cc(C(=O)NCCN5CC6CCC5CC6)cnc4C)c3s2)c1", "COMPARISON SIGN": "<", "REPORTED RESULT": 5.70}
{"MOLECULE": "Cc1ncc(NC(=O)CN2CC(C)(C)C2)cc1NC(=O)c1cnn2cc(-c3cnn(C4CCS(=O)(=O)CC4)c3)sc12", "COMPARISON SIGN": "=", "REPORTED RESULT": 7.07}
{"MOLECULE": "Cc1ncc(NC(=O)CN2Cc3ccncc3C2)cc1NC(=O)c1cnn2cc(-c3cnn(C)c3)sc12", "COMPARISON SIGN": "=", "REPORTED RESULT": 7.10}
{"MOLECULE": "Cc1ncc(C(=O)NCCN2CCCC2(C)C)cc1NC(=O)c1cnn2cc(-c3ccncc3)sc12", "COMPARISON SIGN": "=", "REPORTED RESULT": 7.80}
{"MOLECULE": "COCCn1cc(-c2cn3ncc(C(=O)Nc4cc(NC(=O)CCC5CCCN5C(C)C)cnc4C)c3s2)cn1 (stereo not shown)", "COMPARISON SIGN": "=", "REPORTED RESULT": 6.11}

====

Molecular target: Tb-labeled inactive PDGFRβ (Homo sapiens (Human), UniProt P09619)
Sequence (P09619 33-1106): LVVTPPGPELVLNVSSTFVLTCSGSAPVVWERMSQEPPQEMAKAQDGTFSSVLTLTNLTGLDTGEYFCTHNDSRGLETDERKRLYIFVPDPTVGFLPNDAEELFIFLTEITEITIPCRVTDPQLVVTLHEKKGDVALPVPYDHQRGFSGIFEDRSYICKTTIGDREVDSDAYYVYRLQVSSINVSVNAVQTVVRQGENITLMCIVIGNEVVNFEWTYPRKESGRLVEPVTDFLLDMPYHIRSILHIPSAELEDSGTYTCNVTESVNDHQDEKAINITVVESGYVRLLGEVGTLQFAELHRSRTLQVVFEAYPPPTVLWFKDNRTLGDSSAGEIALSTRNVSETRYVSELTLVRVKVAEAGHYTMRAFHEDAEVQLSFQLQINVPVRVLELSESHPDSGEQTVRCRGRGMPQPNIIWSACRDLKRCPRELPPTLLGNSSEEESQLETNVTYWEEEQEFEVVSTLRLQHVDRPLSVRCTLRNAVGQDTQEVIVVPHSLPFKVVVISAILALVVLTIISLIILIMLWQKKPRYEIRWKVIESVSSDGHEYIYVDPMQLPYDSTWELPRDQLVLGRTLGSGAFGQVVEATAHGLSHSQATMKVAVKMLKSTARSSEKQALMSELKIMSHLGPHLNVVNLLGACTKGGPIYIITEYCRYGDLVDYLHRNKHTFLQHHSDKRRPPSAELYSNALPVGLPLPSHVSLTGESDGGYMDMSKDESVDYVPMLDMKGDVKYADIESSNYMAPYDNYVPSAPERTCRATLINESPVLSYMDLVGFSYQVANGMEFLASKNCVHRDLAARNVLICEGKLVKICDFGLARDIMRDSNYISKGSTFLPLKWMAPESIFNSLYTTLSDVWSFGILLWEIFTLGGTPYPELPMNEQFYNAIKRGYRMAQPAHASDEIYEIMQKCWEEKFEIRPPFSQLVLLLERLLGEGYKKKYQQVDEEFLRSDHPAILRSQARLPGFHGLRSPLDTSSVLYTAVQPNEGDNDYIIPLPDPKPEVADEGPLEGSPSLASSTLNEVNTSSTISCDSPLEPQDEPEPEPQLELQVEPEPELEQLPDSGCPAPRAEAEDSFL
Assay: PDGFRβ LanthaScreen Assay
Settings: read-out: PDGFR Lantha IC50
pIC50: −log10 of the molar value.
Measured pIC50 of individual entries

{"COMPOUND": "Cc1ncc(NC(=O)CN2CCCC2(C)C)cc1NC(=O)c1cnn2cc(-c3cnn(CCO)c3)sc12", "pIC50": 8.43}
{"COMPOUND": "CC(=O)Nc1cncc(-c2cn3ncc(C(=O)Nc4cc(C(=O)NCCN5CC6CCC5CC6)cnc4C)c3s2)c1", "pIC50": 8.16}
{"COMPOUND": "Cc1ncc(C(=O)NCCN2CCCC2(C)C)cc1NC(=O)c1cnn2cc(-c3cccc4c3cnn4C)sc12", "pIC50": 8.70}
{"COMPOUND": "Cc1ncc(NC(=O)CN2CC3(COC3)C2)cc1NC(=O)c1cnn2cc(-c3cnn4c3OCCC4)sc12", "pIC50": 8.18}
{"COMPOUND": "Cc1ncc(NC(=O)CN2CC(C)(C)C2)cc1NC(=O)c1cnn2cc(-c3c(C)nn(C4COC4)c3C)sc12", "pIC50": 8.17}
{"COMPOUND": "Cc1ncc(NC(=O)CN2CC3(CCCCO3)C2)cc1NC(=O)c1cnn2cc(-c3cnn4c3OCCC4)sc12", "pIC50": 8.43}
{"COMPOUND": "Cc1ncc(NC(=O)CN2CCCC2(C)C)cc1NC(=O)c1cnn2cc(-c3cccnc3OCCF)sc12", "pIC50": 8.74}
{"COMPOUND": "Cc1ncc(C(=O)NCCN2CC3CCC2CC3)cc1NC(=O)c1cnn2cc(-c3cnn(C4CC4)c3)sc12", "pIC50": 8.64}
{"COMPOUND": "Cc1ncc(C(=O)NCCN2CC(C)(C)C2)cc1NC(=O)c1cnn2cc(-c3cnn(C)c3)sc12", "pIC50": 7.99}
{"COMPOUND": "COc1ncccc1-c1cn2ncc(C(=O)Nc3cc(NC(=O)CN4CCO[C@H](C)C4)cnc3C)c2s1", "pIC50": 8.72}
{"COMPOUND": "Cc1ncc(C(=O)NCCN2CCCC23CCC3)cc1NC(=O)c1cnn2cc(-c3cnn4c3COCC4)sc12", "pIC50": 8.55}
{"COMPOUND": "Cc1ncc(C(=O)NCCN2CC3CCC2CC3)cc1NC(=O)c1cnn2cc(-c3ccncc3)sc12", "pIC50": 8.38}
{"COMPOUND": "CCc1cc(C(=O)NCCN2CCCC23CCC3)sc1NC(=O)c1cnn2cc(-c3cnn(C)c3)sc12", "pIC50": 6.97}
{"COMPOUND": "Cc1ncc(S(=O)(=O)NCCN2CCCC2(C)C)cc1NC(=O)c1cnn2cc(-c3cnn(C)c3)sc12", "pIC50": 6.35}
{"COMPOUND": "Cc1ncc(C(=O)NCCN2CCCC2)cc1NC(=O)c1cnn2cc(-c3cnn(C)c3C)sc12", "pIC50": 8.30}
{"COMPOUND": "Cc1ncc(NC(=O)CN2C[C@H](CO)OC(C)(C)C2)cc1NC(=O)c1cnn2cc(-c3cnn(C)c3)sc12", "pIC50": 8.25}
{"COMPOUND": "Cc1ncc(NC(=O)CN(C)C2CCOCC2)cc1NC(=O)c1cnn2cc(-c3cnn(CS(C)(=O)=O)c3)sc12", "pIC50": 8.19}
{"COMPOUND": "Cc1ncc(C(=O)NCCN2CC3CCC2CC3)cc1NC(=O)c1cnn2cc(-c3ccnc(N4CCOCC4)c3)sc12", "pIC50": 8.85}
{"COMPOUND": "Cc1ncc(NC(=O)CN2CCCC2(C)C)cc1NC(=O)c1cnn2cc(-c3cnn(C)c3)sc12", "pIC50": 8.30}
{"COMPOUND": "Cc1ncc(C(=O)NCCN2CCCC2(C)C)cc1NC(=O)c1cnn2cc(-c3cn(C)nc3C)sc12", "pIC50": 8.60}
{"COMPOUND": "CC(=O)N1CCN(CCNC(=O)c2cnc(C)c(NC(=O)c3cnn4cc(-c5cnn(C)c5)sc34)c2)CC1", "pIC50": 7.06}
{"COMPOUND": "Cc1cc(C(=O)NCCCN2CCCC2(C)C)sc1NC(=O)c1cnn2cc(-c3cnn(C)c3)sc12", "pIC50": 5.61}
{"COMPOUND": "COc1ncccc1-c1cn2ncc(C(=O)Nc3cc(NC(=O)CN4CC(C)C4)cnc3C)c2s1", "pIC50": 8.41}
{"COMPOUND": "Cc1ncc(NC(=O)CCN2CCCC2(C)C)cc1NC(=O)c1cnn2cc(-n3ncc4cccnc43)sc12", "pIC50": 8.68}
{"COMPOUND": "Cc1ncc(NC(=O)CN2CC(C)C2)cc1NC(=O)c1cnn2cc(-c3cnn4c3OCCC4)sc12", "pIC50": 8.21}
{"COMPOUND": "Cc1ncc(NC(=O)CNC2(C)CCC2)cc1NC(=O)c1cnn2cc(-c3cnn4c3OCCC4)sc12", "pIC50": 8.60}
{"COMPOUND": "Cc1ncc(C(=O)NCCN2CC3COCC3C2)cc1NC(=O)c1cnn2cc(-c3cnn(C)c3)sc12 (stereo not drawn)", "pIC50": 7.90}
{"COMPOUND": "COCCn1cc(-c2cn3ncc(C(=O)Nc4cc(NC(=O)CCCN5CCC[C@@H]5C)cnc4C)c3s2)cn1", "pIC50": 7.32}
{"COMPOUND": "Cc1ncc(NC(=O)CN2CC(C)(C)C2)cc1NC(=O)c1cnn2cc(-c3cncnc3C)sc12", "pIC50": 6.74}
{"COMPOUND": "Cc1ncc(C(=O)NC2CN(C(C)(C)C)C2)cc1NC(=O)c1cnn2cc(-c3cccc4c3cnn4C)sc12", "pIC50": 8.12}

====

The reader will find IC50 measurements below, all made with His6-TEV-PDGFRβ (557-1016) (Homo sapiens (Human), UniProt P09619).
Sequence (P09619 557-1016): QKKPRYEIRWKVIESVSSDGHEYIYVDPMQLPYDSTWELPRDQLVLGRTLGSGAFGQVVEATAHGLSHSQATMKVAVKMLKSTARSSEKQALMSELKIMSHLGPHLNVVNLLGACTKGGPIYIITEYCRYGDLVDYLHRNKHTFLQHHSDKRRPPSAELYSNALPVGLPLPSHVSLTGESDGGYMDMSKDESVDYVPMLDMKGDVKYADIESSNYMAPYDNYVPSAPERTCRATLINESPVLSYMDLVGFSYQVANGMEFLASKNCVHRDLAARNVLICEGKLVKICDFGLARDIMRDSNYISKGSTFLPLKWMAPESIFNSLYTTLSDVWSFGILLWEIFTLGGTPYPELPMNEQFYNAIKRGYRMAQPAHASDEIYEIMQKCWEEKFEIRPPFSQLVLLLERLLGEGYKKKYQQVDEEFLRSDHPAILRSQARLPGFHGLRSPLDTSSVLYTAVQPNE

{"COMPOUND": "CNC(=O)Cn1cc(-c2cn3ncc(C(=O)Nc4cc(NC(=O)CN5CC(C)(C)C5)cnc4C)c3s2)cn1 [Example 279]", "TARGET": "His6-TEV-PDGFRβ (557-1016) (Homo sapiens (Human), UniProt P09619)", "MEASURE UNIT": "nM", "IC50": 0.4}
{"COMPOUND": "Cc1ncc(C(=O)NCCN2CCCC23CCC3)cc1NC(=O)c1cnn2cc(-c3cnn4c3COCC4)sc12 [Example 472]", "TARGET": "His6-TEV-PDGFRβ (557-1016) (Homo sapiens (Human), UniProt P09619)", "MEASURE UNIT": "nM", "IC50": 0.4}
{"COMPOUND": "Cc1ncc(NC(=O)[C@@H]2CCCN2C)cc1NC(=O)c1cnn2cc(-c3cnn4c3OCCC4)sc12 [Example 349]", "TARGET": "His6-TEV-PDGFRβ (557-1016) (Homo sapiens (Human), UniProt P09619)", "MEASURE UNIT": "nM", "IC50": 0.6}
{"COMPOUND": "Cc1ncc(C(=O)NCCN2CCCC2(C)C)cc1NC(=O)c1cnn2cc(-c3ccnc(N(C)C)c3)sc12 [Example 490]", "TARGET": "His6-TEV-PDGFRβ (557-1016) (Homo sapiens (Human), UniProt P09619)", "MEASURE UNIT": "nM", "IC50": 0.3}
{"COMPOUND": "COc1ncccc1-c1cn2ncc(C(=O)Nc3cc(NC(=O)CN4CCOC(C)(C)C4)cnc3C)c2s1 [Example 319]", "TARGET": "His6-TEV-PDGFRβ (557-1016) (Homo sapiens (Human), UniProt P09619)", "MEASURE UNIT": "nM", "IC50": 0.3}
{"COMPOUND": "COCCn1cc(-c2cn3ncc(C(=O)Nc4cc(NC(=O)CN5CCC5C(C)C)cnc4C)c3s2)cn1 (stereo not drawn) [Example 467]", "TARGET": "His6-TEV-PDGFRβ (557-1016) (Homo sapiens (Human), UniProt P09619)", "MEASURE UNIT": "nM", "IC50": 0.4}
{"COMPOUND": "Cc1ncc(NC(=O)CN2[C@H](C)COC[C@H]2C)cc1NC(=O)c1cnn2cc(-c3cnn(C)c3)sc12 [Example 51]", "TARGET": "His6-TEV-PDGFRβ (557-1016) (Homo sapiens (Human), UniProt P09619)", "MEASURE UNIT": "nM", "IC50": 0.4}
{"COMPOUND": "COC1CCN(CC(=O)Nc2cnc(C)c(NC(=O)c3cnn4cc(-c5cnn(C)c5)sc34)c2)CC1 [Example 83]", "TARGET": "His6-TEV-PDGFRβ (557-1016) (Homo sapiens (Human), UniProt P09619)", "MEASURE UNIT": "nM", "IC50": 2.3}
{"COMPOUND": "Cc1ncc(NC(=O)CN2CCC[C@@H]2C)cc1NC(=O)c1cnn2cc(-c3cnn4c3OCCC4)sc12 [Example 413]", "TARGET": "His6-TEV-PDGFRβ (557-1016) (Homo sapiens (Human), UniProt P09619)", "MEASURE UNIT": "nM", "IC50": 0.3}
{"COMPOUND": "COC1(C)CN(CC(=O)Nc2cnc(C)c(NC(=O)c3cnn4cc(-c5cn(C)nc5C)sc34)c2)C1 [Example 442]", "TARGET": "His6-TEV-PDGFRβ (557-1016) (Homo sapiens (Human), UniProt P09619)", "MEASURE UNIT": "nM", "IC50": 0.3}
{"COMPOUND": "Cc1ncc(NC(=O)[C@@H]2CCCN3CCCC[C@H]23)cc1NC(=O)c1cnn2cc(-c3cnn(C)c3)sc12 [Example 308]", "TARGET": "His6-TEV-PDGFRβ (557-1016) (Homo sapiens (Human), UniProt P09619)", "MEASURE UNIT": "nM", "IC50": 20.9}
{"COMPOUND": "Cc1ncc(NC(=O)CN2CC(C)(C)C2)cc1NC(=O)c1cnn2cc(-c3cnn(CC(F)(F)F)c3)sc12 [Example 268]", "TARGET": "His6-TEV-PDGFRβ (557-1016) (Homo sapiens (Human), UniProt P09619)", "MEASURE UNIT": "nM", "IC50": 0.6}
{"COMPOUND": "Cc1ncc(NC(=O)CN2C[C@H](C)O[C@@H](C)C2)cc1NC(=O)c1cnn2cc(-c3c[nH]nc3C)sc12 (relative stereo) [Example 371]", "TARGET": "His6-TEV-PDGFRβ (557-1016) (Homo sapiens (Human), UniProt P09619)", "MEASURE UNIT": "nM", "IC50": 0.4}
{"COMPOUND": "Cc1ncc(NC(=O)CN2CCO[C@H](C)C2)cc1NC(=O)c1cnn2cc(-c3cnn(C)c3)sc12 [Example 54]", "TARGET": "His6-TEV-PDGFRβ (557-1016) (Homo sapiens (Human), UniProt P09619)", "MEASURE UNIT": "nM", "IC50": 0.5}
{"COMPOUND": "Cc1ncc(NC(=O)CN2CCC[C@H]2C)cc1NC(=O)c1cnn2cc(-c3nn(C)nc3C)sc12 [Example 443]", "TARGET": "His6-TEV-PDGFRβ (557-1016) (Homo sapiens (Human), UniProt P09619)", "MEASURE UNIT": "nM", "IC50": 0.4}
